Target: Abl kinase (Homo sapiens, UniProt P00519)
Assay: biochemical
Conditions: Abl IC50 (nM), Abl kinase (Invitrogen, 20 ng/well), Abltide 100 μM, ATP 500 nM, 37° C. for 60 minutes, top concentration 10 uM
Counter-ions that a name gives are not always drawn.
Parameter: IC50 (nM)

- Compound: "O=S(=O)(c1ccc(Nc2ncc(/C=C/c3ccc(O)cc3)cn2)cc1)C1CCNCC1"
  Endpoint result: 15
- Compound: "COCCN1CCN(S(=O)(=O)c2ccc(Nc3ncc(/C=C/c4ccc5nc(N)sc5c4)cn3)cc2)CC1"
  Endpoint result: 1150
- Compound: "O=C(Nc1ccc(Cl)c(/C=C/c2cnc(Nc3ccc(S(=O)(=O)C4CCNCC4)cc3)nc2)c1)c1cccc(C(F)(F)F)c1"
  Endpoint result: 12
- Compound: "O=S(=O)(c1ccc(Nc2ncc(/C=C/c3cccc(O)c3)cn2)cc1C(F)(F)F)N1CCNCC1"
  Endpoint result: 222
- Compound: "O=S(=O)(c1ccc(Nc2ncc(/C=C/c3ccc(F)c4[nH]ccc34)cn2)cc1)C1CCNCC1 [Hydrochloride]"
  Endpoint result: 8
- Compound: "COc1cccc(/C=C/c2cnc(Nc3ccc(S(=O)(=O)C4CCNCC4)cc3)nc2)c1"
  Endpoint result: 172
- Compound: "OCCN1CCN(c2cccc(Nc3ncc(/C=C/c4cccc5[nH]ccc45)cn3)c2)CC1 [Hydrochloride]"
  Endpoint result: 178
- Compound: "O=C(Nc1ccc(/C=C/c2cnc(Nc3ccc(S(=O)(=O)C4CCNCC4)cc3)nc2)cc1)c1cccc(C(F)(F)F)c1 [Hydrochloride]"
  Endpoint result: 506

* * *

Molecular target: Abl kinase (Homo sapiens)
Assay: biochemical
Settings: Abl IC50 (nM), Abl kinase (Invitrogen, 20 ng/well), Abltide 100 μM, ATP 500 nM, 37° C. for 60 minutes, top concentration 10 uM
Where a name gives a salt, the structure may show the parent alone.
IC50 values, listed per item

- Compound: "O=S(=O)(CCCN1CCCC1)c1ccc(Nc2ncc(/C=C/c3cccc4[nH]ccc34)cn2)cc1"
  IC50 [nM]: 13
- Compound: "O=S(=O)(c1ccc(Nc2ncc(/C=C/c3ccc4[nH]ccc4c3)cn2)cc1)C1CCNCC1"
  IC50 [nM]: 37
- Compound: "O=S(=O)(c1ccc(Nc2ncc(/C=C/c3cccc(O)c3)cn2)c(C(F)(F)F)c1)N1CCNCC1"
  IC50 [nM]: 44700
- Compound: "O=S(=O)(NCCN1CCCC1)c1ccc(Nc2ncc(/C=C/c3cc(O)ccc3Cl)cn2)cc1"
  IC50 [nM]: 7.7
- Compound: "O=S(=O)(c1ccc(Nc2ncc(/C=C/c3cccc4[nH]ncc34)cn2)cc1NCCO)N1CCNCC1"
  IC50 [nM]: 6.5
- Compound: "CCNC(=O)N1CCC(S(=O)(=O)c2ccc(Nc3ncc(/C=C/c4ccc5nc(N)sc5c4)cn3)cc2)CC1"
  IC50 [nM]: 233
- Compound: "Nc1cc(C(F)(F)F)cc(/C=C/c2cnc(Nc3ccc(S(=O)(=O)C4CCNCC4)cc3)nc2)c1N"
  IC50 [nM]: 210
- Compound: "O=S(=O)(c1ccc(Nc2ncc(/C=C/c3n[nH]c4ccccc34)cn2)cc1)C1CCNCC1 [Hydrochloride]"
  IC50 [nM]: 191

* * *

Biological target: Abl (T315I) (Homo sapiens, UniProt P00519, T315I)
Construct: purchased Upstate
Assay: Abl (T315I) Kinase Assay (KinaseGlo luminescent detection of residual ATP)
Assay type: biochemical
Conditions: Abl (T315I) IC50 (nM), Abl (T315I) (Upstate, 17 ng/well), Abltide 100 uM, ATP 500 nM, 60 minutes at 37° C.
Where a name gives a salt, the structure may show the parent alone.
Threshold check on IC50: strictly below 700 nM is Met; on or above 700 nM is Not met.

- Compound: "CN(C1CCNCC1)S(=O)(=O)c1ccc(Nc2ncc(/C=C/c3ccc4nc(N)sc4c3)cn2)cc1 [Hydrochloride]"
  Classification: "Met"
- Compound: "O=S(=O)(c1ccc(Nc2ncc(/C=C/c3cc(C(F)(F)F)cc4[nH]cnc34)cn2)cc1)C1CCNCC1"
  Classification: "Met"
- Compound: "Nc1nc2ccc(/C=C/c3cnc(Nc4ccc(S(=O)(=O)N5CCC(O)CC5)cc4)nc3)cc2s1"
  Classification: "Met"
- Compound: "Nc1nc2ccc(/C=C/c3cnc(Nc4ccc(S(=O)(=O)N5CCCNCC5)cc4)nc3)cc2s1"
  Classification: "Met"
- Compound: "O=C(Nc1nc2ccc(/C=C/c3cnc(Nc4ccc(S(=O)(=O)C5CCNCC5)cc4)nc3)cc2s1)c1cccc(F)c1 [Hydrochloride]"
  Classification: "Not met"
- Compound: "Nc1nc2ccc(/C=C/c3cnc(Nc4ccc(S(=O)(=O)N5CCC(CO)CC5)cc4)nc3)cc2s1"
  Classification: "Met"
- Compound: "N#Cc1ccc(Nc2ncc(/C=C/c3cccc4[nH]ccc34)cn2)cc1"
  Classification: "Not met"
- Compound: "O=C(Nc1cccc(/C=C/c2cnc(Nc3ccc(S(=O)(=O)C4CCNCC4)cc3)nc2)c1)c1cccc(C(F)(F)F)c1 [Hydrochloride]"
  Classification: "Not met"
